For each of the compounds below, state its GI50.
System: RPMI-8226 leukemia
method_notes: NCI tumour cell line growth inhibition, 48 h

Asked: Suppose we examine the compound `O=C(/C(=C/c1ccc([N+](=O)[O-])cc1)c1ccccc1)c1ccccc1` ; what GI50 value has been reported?
Given back: 2360 nM

Asked: Next record, please: CC(=O)C(O)N1C(=O)C=CC1=O (stereo not given)
Given back: 12800 nM

Asked: For `CC(C)(C)c1ccc(OCCCCCCN2CCNCC2)cc1` then?
Given back: 2500 nM

Asked: Again, but for `COc1cccc(C=Nc2cc(C)ccn2)c1O.COc1cccc(C=Nc2cc(C)ccn2)c1O.[Cu]`
Given back: 17600 nM

Asked: Do the same for `CN1CCN(Cc2ccc(NC(=O)c3cncc(C#Cc4cnc(N)c5ccncc45)c3)cc2C(F)(F)F)CC1` please
Given back: 1090 nM

====

System: A498 renal
method_notes: NCI tumour cell line growth inhibition, 48 h; in the data active means GI50 below about 0.43 µM; inactive means the rest
Choose one outcome from this list and give only that: active, inactive

Asked: So what was the verdict on `Cc1c2cc[n+](CCN3CCCCC3)cc2c(C)c2c1[nH]c1ccc(O)cc12` in this test?
Given back: inactive

Asked: Follow-up item: `Cc1ccc(C(=O)Nc2cccc(C(F)(F)F)c2)cc1Nc1nc(-c2cccnc2)nc2c1cnn2C`
Given back: inactive

Asked: Okay, and `Cc1ccc(C2=NOC3=c4ccccc4=CSC3=C2c2ccc([N+](=O)[O-])cc2)cc1` ?
Given back: inactive

Asked: Another molecule: `CN1CCN(Cc2ccc(NC(=O)c3cncc(C#Cc4cnc(N)c5ccncc45)c3)cc2C(F)(F)F)CC1`
Given back: active

Asked: Follow-up item: CC(=O)OC1C=CC(OC(C)=O)C2C1[C@H]1C3C=CC=CC3[C@@H]2S1=O (stereo partly drawn)
Given back: inactive

Asked: Next entry: `Clc1cc(Cl)c(OCC#CI)cc1Cl`
Given back: inactive

Asked: Entry `N#Cc1c(N/N=C/c2c(Cl)cccc2Cl)nc(N)nc1N1CCOCC1` please
Given back: inactive

Asked: Next: `COC(=O)Cn1c2c(c3c(O)cccc31)C(=O)c1ccccc1-2`
Given back: inactive

====

Test system: EKVX NSCLC
method_notes: NCI tumour cell line growth inhibition, 48 h
measured_parameter: TGI

Asked: Find the recorded TGI belonging to COc1cc2c(cc1OC(=O)CC(C)O)C1C(OC2=O)C(OC(C)=O)C=C2CCN(C)[C@H]21 (some centres undefined) and report it.
Given back: > 100 µM

Asked: Field entry: `O=c1cc(-c2cccc(Cl)c2)[nH]c2ncccc12`
Given back: > 100 µM

Asked: Next entry: `Cc1ccc(Oc2ccc(C)cc2[N+](=O)[O-])cc1`
Given back: > 100 µM

Asked: Okay, and COC(=O)C1=CSC2(S1)C(C(=O)OC)=CSc1c2ssc1=Nc1ccccc1 (centres undefined) ?
Given back: > 100 µM

Asked: Ok, now COc1nc(N)c(NC2OC(CO)C(O)C2O)c(=O)[nH]1 (centres undefined)
Given back: > 100 µM

Asked: For `N#C/C(=C\c1ccccc1)C(=O)Nc1nnc(-c2ccccc2)o1` then?
Given back: > 100 µM

Asked: Moving on to CC1C(O)C2(Oc3cc4c(c5c3[C@@H](CC5O)[C@H]2C)CCC2Cc3nc5c(nc3C[C@@]42C)CC2CCC3C4=C[C@H]6O[C@@]7(O[C@@](C)(CO)C[C@@H]7O)C(C)[C@@]6(O)[C@]4(C)[C@@H](O)CC3[C@]2(C)C5)OC1(C)C (some centres undefined)
Given back: > 3.67 µM

Asked: Then what about the compound `CC(C)(C)c1ccc(OCCCCCCN2CCNCC2)cc1` ?
Given back: 24.2 µM

Asked: Queued: `CCN=C1C=CC(=C(c2ccc(N)cc2)c2ccc(N(CC)CC)c(C)c2)C=C1`
Given back: 11.1 µM

====

Test system: OVCAR-5 ovarian
method_notes: NCI tumour cell line growth inhibition, 48 h; in the data active = GI50 below about 0.43 µM; inactive = the rest
Lab note: assign the record to one of TRUE for active, FALSE for inactive

Asked: Recorded call for O=C(c1ccccc1)C(CN1CCOCC1)c1ccccc1 (stereo unspecified) ?
Given back: FALSE

Asked: Proceed to `O=C(NN1C(=O)CSC12CCCCC2)c1[nH]c2ccc(F)cc2c1-c1ccccc1`
Given back: FALSE

Asked: Let us now turn to `O[C@H]1CO[C@H]2[C@@H]1OC[C@@H]2Oc1ccc(Nc2ccnc(Nc3ccc(O[C@H]4CO[C@H]5[C@@H]4OC[C@@H]5O)c(Cl)c3)n2)cc1Cl`
Given back: FALSE

Asked: Field entry: O=C(C1CCCCC1)[C@@H]1[C@]2(C(=O)NC3CCCCC32)[C@@H]2CCCN2[C@@]12C(=O)NC1CCC(Cl)CC12 (stereo partly specified)
Given back: FALSE

Asked: And for `C/C(=N\Nc1ccc2ccccc2n1)c1ccccn1` ?
Given back: TRUE

Asked: Now try `COC(=O)Cn1c2c(c3c(O)cccc31)C(=O)c1ccccc1-2` .
Given back: FALSE

Asked: Entry to check: `c1ccc2c(c1)c(NCCCCN1CCCCC1)cc1c3ccccc3c(NCCCCN3CCCCC3)cc21`
Given back: FALSE

Asked: What do you have for `COc1cc2c(cc1OCCCCOc1cc3c(cc1OC)C(=O)N1CCC[C@H]1CN3)N=C[C@@H]1CCCN1C2=O` ?
Given back: FALSE

Asked: Now the same for `O=C1c2ccccc2-c2c1c1ccc([N+](=O)[O-])cc1c(=O)n2CCCBr`
Given back: FALSE

Asked: Cool, now `COc1cccc(NC(=O)c2sc3nc4c(cc3c2N)CN(Cc2ccccc2)CC4)c1`
Given back: FALSE

Asked: Also, CC(=O)C(O)N1C(=O)C=CC1=O (stereo unspecified) please.
Given back: FALSE

====

Test system: NCI-H23 lung
method_notes: NCI tumour cell line growth inhibition, 48 h
Exercise: for every item that follows, state its recorded GI50.

Asked: Consider the compound shown here: CC(CN1CCN(CCOCCO)CC1)CN1c2ccccc2Sc2ccc(Cl)cc21 (stereo not drawn) What is its recorded GI50?
Given back: 10.8 µM

Asked: One more compound: CCN1CCC(CCOC)(CN2c3ccccc3Sc3ccc(Cl)cc32)C1 (stereo not drawn)
Given back: 2.2 µM

Asked: Try the compound `C[C@]12CC[C@H]3[C@@H](CCC4=CC(=O)CC[C@@H]43)[C@@H]1CC[C@@H]2OC(=O)CCc1ccccc1`
Given back: 19.9 µM

====

System: MALME-3M melanoma
method_notes: NCI tumour cell line growth inhibition, 48 h
Exercise: for every item that follows, state its recorded TGI.

Asked: # TGI lookup, item CC(=O)C1=CSC2[C@H](NC(=O)Cc3ccccc3)C(=O)N2C1C(=O)OC(c1ccccc1)c1ccccc1 (stereo not given in full)
Given back: > 100 µM

Asked: What about this compound? `CCOC(=O)/C(Cl)=C(\C)Nc1nc2c(ccc3ccccc32)s1`
Given back: > 100 µM

Asked: Next: `O=c1cc(-c2cccc(Cl)c2)[nH]c2ncccc12`
Given back: > 100 µM

Asked: Repeat with `O=c1[nH]c2ccccc2nc1-c1c[nH]c2ccccc12`
Given back: > 100 µM

Asked: Also check CCCCCCCCCCCCCCCCCC(=O)OCC(COC1OC(COP(=O)(O)O)C(O)C(O)C1O)OC(=O)CCCCCCCCCCCCCCCCC (stereo not given)
Given back: 14.2 µM

====

Please go through the items and note down their TGI.
Test system: NCI-H23 lung
method_notes: NCI tumour cell line growth inhibition, 48 h

Asked: Quick one: TGI for `CCCCNCC(=O)O[C@]1(CC)C(=O)OCc2c1cc1n(c2=O)Cc2cc3ccccc3nc2-1` ?
Given back: 0.877 µM

Asked: // same read-out, input: `O=c1cc(-c2cccc(Cl)c2)[nH]c2ncccc12`
Given back: > 100 µM

Asked: Item: CC12NN=NC1C(=O)NC2=O (stereo not drawn)
Given back: > 100 µM

Asked: // query: CCOC1(COP(=O)(OCc2ccccc2)OCc2ccccc2)COC(COP(=O)(OCc2ccccc2)OCc2ccccc2)(OCC)CO1 (stereo not drawn)
Given back: > 100 µM

Asked: Check `CCOC(=O)c1oc2ccc(OC)c3c2c1CCC3` too.
Given back: > 100 µM

Asked: Same again, this time with `CN(C)c1ccc(/C=N\NC(=O)CSCC(=O)N/N=C/c2ccc(N(C)C)cc2)cc1`
Given back: > 100 µM

Asked: Continue with `CN(C)CCCN1c2ccccc2CCc2ccc(Cl)cc21`
Given back: 21.9 µM

Asked: And `O=S(=O)(Sc1ccc(Cl)cc1)c1ccc(Cl)cc1` ?
Given back: 30.5 µM

====

Test system: U251 CNS
Entry note: the call must match one of active, inactive

Asked: What outcome does the record of this test show for `Nc1ncnc2[nH]ncc12` ?
Given back: inactive

Asked: Could you do the same for `O=C(NN1C(=O)CSC12CCCCC2)c1[nH]c2ccc(F)cc2c1-c1ccccc1` , please?
Given back: inactive

Asked: Again, but for `C=CC(=O)Nc1cccc(C)c1Nc1cc(-c2cccnc2Cc2c(C)c(OC)cc(OC)c2C)ncn1`
Given back: inactive

Asked: What about this compound? `COc1cccc(C=Nc2cc(C)ccn2)c1O.COc1cccc(C=Nc2cc(C)ccn2)c1O.[Cu]`
Given back: inactive

Asked: Try this compound next: `Cc1cc(N/N=C/c2nc(-c3ccc(Br)cc3)oc2C)c2cc(Cl)ccc2n1`
Given back: inactive

Asked: Try this compound next: `O=C1c2ccccc2-c2c1c1ccc([N+](=O)[O-])cc1c(=O)n2CCCBr`
Given back: inactive

Asked: What do we get for `COc1ccc(-c2n[nH]nc2-c2cc(OC)c3c(c2OC)OCO3)cc1` ?
Given back: inactive

Asked: Record: `O=C(/C(=C/c1ccccc1)CN1CCCCC1)c1ccccc1`
Given back: inactive

Asked: What about `O=C1C(=O)c2c(nc3ccc(Cl)cn23)-c2ccccc21` ?
Given back: active

Asked: Further, for `Cn1c2c(cc(S(=O)(=O)c3ccccc3)c1=O)CCc1c-2cnn1-c1ccc(Cl)cc1` ?
Given back: inactive
